The reported measurements were obtained from PubChem BioAssay (NCATS).

Test: qHTS of pediatric cancer cell lines to identify multiple opportunities for drug repurposing: Primary screen for SK-N-SH cells (AID 1347098);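 further: DMSO served as neutral control and bortezomib at 2.3 µM as positive control; nearly all actives have a fitted effect of over 65% in size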
Settings: SK-N-SH viability, CellTiter-Glo luminescence, 48 h; series mostly up to 57 µM
Inconclusive results are not listed. Calls of active or inactive are those of the source. The call rests on the fitted dose curve; in most records, active means well fitted cell-killing curve with a large enough effect; inconclusive means small, poorly fitted or top-dose-only effect; inactive means no such curve, though single readings can be large or run the other way.
Pick one and only one: 1 for active, -1 for inactive

Compound | Category label
O=C(O)CCC(=O)Nc1ccc(S(=O)(=O)Nc2nccs2)cc1 | -1
FC(F)(F)C(F)(F)C(F)(F)C(F)(F)C(F)(F)C(F)(F)C(F)(F)C(F)(F)Br | -1
CCC1NC(=O)c2cc(S(N)(=O)=O)c(Cl)cc2N1 (configuration not stated) | -1

Task: For "CCNC(=O)/C=C/c1cccc(Br)c1" , what call appears in the results of this test?
Result: -1

Task: Subsequent entry: "COc1ccc2c(c1)c1c3n2CCN(C)C3=NCC1"
Result: -1

---

System: JCK
Test: qHTS profiling for inhibitors of Plasmodium falciparum proliferation (AID 504749); further: nearly all actives have a fitted effect of over 60% in size
Conditions: P. falciparum in erythrocytes, SYBR Green DNA, 72 h; series mostly up to 28.7 µM
Results filed as inconclusive are left out. Calls of active or inactive are those of the source. Calls come from the whole dose curve; as a rule, active = well fitted inhibition curve with a large enough effect; inconclusive = small, poorly fitted or top-dose-only effect; inactive = flat fitted curve, though single readings scatter.
Mark one answer only. Choices: active, inactive

Compound | Category label
Cc1cc(-c2ccccc2)nnc1NCCN1CCOCC1 | inactive

Task: What was the test verdict on "CO[C@]12C[C@@H](COC(=O)c3cncc(Br)c3)CN(C)[C@@H]1Cc1cn(C)c3cccc2c13" ?
Result: inactive

Task: Check "CCOc1cc(OCC)c(C(=O)CCC(=O)O)cc1OCC" too.
Result: inactive

Task: Try the compound "CCOCCn1c(N2CCCN(C)CC2)nc2ccccc21"
Result: inactive

Task: Please do the same for "CCNC(=O)/C=C/c1cccc(Br)c1" as well.
Result: inactive

Task: Same thing, different compound: "CN1CCC(OC(c2ccccc2)c2ccccc2)CC1"
Result: inactive

Task: // query: "CC(=O)N[C@@H](CCC(=O)O)C(=O)O"
Result: inactive

Task: Thanks! And "NC(=O)n1c(O)c(C(=O)c2cccs2)c2cc(Cl)ccc21" ?
Result: inactive

Task: Same for "C#C[C@]1(OC(C)=O)CC[C@H]2[C@@H]3CCC4=C/C(=N/O)CC[C@@H]4[C@H]3CC[C@@]21CC"
Result: inactive

---

System: AA1029
Assay: qHTS profiling for inhibitors of Plasmodium falciparum proliferation (AID 504749); further: nearly all actives have a fitted effect of over 60% in size
Details: P. falciparum in erythrocytes, SYBR Green DNA, 72 h; series mostly up to 28.7 µM
Records with an inconclusive call do not appear. Activity calls are given as the source filed them. Calls come from the whole dose curve; as a rule, active = well fitted inhibition curve with a large enough effect; inconclusive = small, poorly fitted or top-dose-only effect; inactive = flat fitted curve, though single readings scatter.
Response enum: 1 (active), 0 (inactive)

Check out these entries, answers already filled in.
Molecule | Category label
CN1CCc2cccc3c2[C@H]1Cc1ccc(O)c(O)c1-3 | 1
C/C=C/c1ccc(O)c(OC)c1 | 0
CC(=O)O[C@]1(C(C)=O)CC[C@H]2[C@@H]3C=C(Cl)C4=CC(=O)CC[C@]4(C)[C@H]3CC[C@@]21C | 1
CCCCc1cc2ccccc2c(OCCN(C)C)n1 | 0

Task: Hey, what did the test say about "CCC(CC)(CC(=O)Nc1cccc(/C=C/c2nc(C3CCC3)cs2)c1)C(=O)O" ?
Result: 0

Task: Moving on to "O=C1C(O)=C(O)C(=O)C(O)=C1O"
Result: 0

Task: Again, but for "O=C(NCCc1c[nH]c2ccccc12)c1cccnc1"
Result: 0

Task: And "CCOc1ccccc1C(N)=O" ?
Result: 0

Task: Try this molecule too: Cc1ccccc1OCC(O)CO (stereo not drawn)
Result: 0

Task: Similarly, "C=CCN1CCc2nc(N)sc2CC1" ?
Result: 0

Task: Please give the result for "CCCCCCCCCCCCCCCC(=O)O" too.
Result: 0

Task: Subsequent entry: "C#C[C@]1(OC(C)=O)CC[C@H]2[C@@H]3CCC4=C/C(=N/O)CC[C@@H]4[C@H]3CC[C@@]21CC"
Result: 0

Task: Try this molecule too: "Nc1ccc(S(=O)(=O)NCc2ccccc2)cc1"
Result: 0

Task: Repeat with "Cc1ncc(CO)c(C=O)c1O"
Result: 0

Task: Also check "CC1=C(C(=O)O)N2C(=O)[C@@H](NC(=O)[C@H](N)c3ccccc3)[C@H]2SC1"
Result: 0

Task: Same question, "CCOc1ccccc1OCCN[C@H](C)Cc1ccc(OC)c(S(N)(=O)=O)c1" this time
Result: 0

Task: Queued: "N=C(N)N1CCc2ccccc2C1"
Result: 0

---

Test system: CASKI
Assay: Primary qHTS to identify gynecologic anti-cancer compounds using libraries of approved drugs and bioactive compounds (AID 1345084); further: nearly all actives have a fitted effect of over 55% in size
Conditions: Gynecologic cancer cell panel viability, ATPlite luminescence, 48 h; series mostly up to 57.5 µM
Records with an inconclusive call do not appear. Activity calls are given as the source filed them. Calls follow the shape of the dose curve; as a rule, active = well fitted cell-killing curve with a large enough effect; inconclusive = small, poorly fitted or top-dose-only effect, or effect the other way; inactive = flat fitted curve, though single readings scatter.
Hello, when you answer, please use one of the following outcomes: 1 (active), 0 (inactive)

Compound | Category label
FC(F)(F)C(F)(F)C(F)(F)C(F)(F)C(F)(F)C(F)(F)C(F)(F)C(F)(F)Br | 0
C#C[C@]1(OC(C)=O)CC[C@H]2[C@@H]3CCC4=C/C(=N/O)CC[C@@H]4[C@H]3CC[C@@]21CC | 0

Task: Hey, what did the test say about "OCCOCCN1CCN(C2=Nc3ccccc3Sc3ccccc32)CC1" ?
Result: 0

Task: Another compound to look at: "CCCCN=C(N)N=C(N)N"
Result: 0

Task: Next entry: "Cc1c[nH]c2ccccc12"
Result: 0

Task: Further, for "CCCCCCCCCCCCCCCC(=O)O" ?
Result: 0

Task: Same question, "CCCCCCCCCCCCCCCCO" this time
Result: 0

Task: "NCCNc1cccc2ccccc12" ?
Result: 0

Task: Try this compound too: "N#CCC(=O)NN"
Result: 0

Task: What do you have for CC1CCc2c(N3CCC(O)CC3)c(F)cc3c(=O)c(C(=O)O)cn1c23 (centres undefined) ?
Result: 0

Task: Consider next the compound "CCCCCCCCOc1ccc(C(=O)c2ccccc2)c(O)c1" in the same way.
Result: 0

Task: // repeat for "NS(=O)(=O)Cc1noc2ccccc12" and report
Result: 0

Task: Moving on to the next compound: "OC[C@H]1O[C@@H](Oc2ccc(O)cc2)[C@H](O)[C@@H](O)[C@@H]1O"
Result: 0

Task: // repeat for "CCCCOC(=O)CC(CC(=O)OCCCC)(OC(C)=O)C(=O)OCCCC" and report
Result: 0

Task: Can you handle CC(CNC1CCCCC1)OC(=O)c1ccccc1 (centres undefined) next?
Result: 0

Task: Also, "O=C(O)CCNC(=O)c1ccccc1" please.
Result: 0

Task: Consider next the compound O=C1OC(CN2CCOCC2)CN1/N=C/c1ccc([N+](=O)[O-])o1 (centres undefined) in the same way.
Result: 0

Task: Then "O=[N+]([O-])c1ccc(/C=N\O)o1" ?
Result: 0

Task: Consider next the compound "CC(C)[C@@H]1CC[C@@H](C)CC1=O" in the same way.
Result: 0

---

Tested on: WaGa
Test: qHTS assay to identify novel small-molecules to repurpose for Merkel cell carcinoma treatment (AID 1296009); further: nearly all actives have a fitted effect of over 60% in size
Conditions: MCC and control cell lines, CellTiter-Glo viability, 72 h; series mostly up to 46 µM
Inconclusive results are not listed. Activity calls are given as the source filed them. Calls come from the whole dose curve; as a rule, active = well fitted inhibition curve with a large enough effect; inconclusive = small, poorly fitted or top-dose-only effect; inactive = flat fitted curve, though single readings scatter.
Mark one answer only. Choices: class 1 = active, class 0 = inactive

Examples with answers:
Molecule | Category label
Cn1c(=O)c2[nH]c(Br)nc2n(C)c1=O | class 0
CCN(CC)CCNC(=O)c1cc(Br)c(N)cc1OC | class 0

Task: Query: recorded result category for COP(=O)(OC)OC(c1ccc(Cl)cc1)P(=O)(OC)OC (stereo not given) in this test
Result: class 0

---

System: P93_24
Assay: qHTS profiling for inhibitors of Plasmodium falciparum proliferation (AID 504749); further: nearly all actives have a fitted effect of over 60% in size
Conditions: P. falciparum in erythrocytes, SYBR Green DNA, 72 h; series mostly up to 28.7 µM
Records with an inconclusive call do not appear. Activity calls are given as the source filed them. Calls come from the whole dose curve; as a rule, active = well fitted inhibition curve with a large enough effect; inconclusive = small, poorly fitted or top-dose-only effect; inactive = flat fitted curve, though single readings scatter.
Use one of these outcomes when replying: active, inactive

Compound | Category label
c1ccc(-c2nc[nH]c2-c2ccccc2)cc1 | inactive
CCOC(=O)C(C#N)=C(c1ccccc1)c1ccccc1 | inactive

Task: // param item: "OC[C@H]1O[C@@H]2O[C@H]3[C@H](O)[C@@H](O)[C@@H](O[C@H]4[C@H](O)[C@@H](O)[C@@H](O[C@H]5[C@H](O)[C@@H](O)[C@@H](O[C@H]6[C@H](O)[C@@H](O)[C@@H](O[C@H]7[C@H](O)[C@@H](O)[C@@H](O[C@H]8[C@H](O)[C@@H](O)[C@@H](O[C@H]1[C@H](O)[C@H]2O)O[C@@H]8CO)O[C@@H]7CO)O[C@@H]6CO)O[C@@H]5CO)O[C@@H]4CO)O[C@@H]3CO" ; yields the recorded call
Result: inactive

Task: Thanks! And "Cc1nc(-c2ccc(Cl)cc2)oc1COC(C)(C)C(=O)O" ?
Result: inactive

Task: Same thing, different compound: "Cc1c(-c2ccccc2)oc2c(C(=O)OCCN3CCCCC3)cccc2c1=O"
Result: inactive

Task: Please give the result for "C[C@@H](O)[C@H]1C(=O)N2C(C(=O)O)=C(S[C@@H]3CN[C@H](CNS(N)(=O)=O)C3)[C@H](C)[C@H]12" too.
Result: inactive

Task: Please do the same for "O=C(Nc1ncc([N+](=O)[O-])s1)c1cccs1" as well.
Result: inactive
